tested on: M14 melanoma; test: NCI tumour cell line growth inhibition, 384-well format
TGI values, listed per item
observedProperty: TGI (µM)

                                   compound  outputunit  reportedmeasurement
0  C[C@@H](C(=O)Nc1ccc(Cl)cc1)C1CCC(c2ccnc3ccc(F)cc23)CC1 (some centres undefined)          µM                 40.8
1  CC(C)(C)C[C@H]1NC(C(=O)NCC[C@H](O)CO)[C@H](c2cccc(Cl)c2)[C@@]12C(=O)Nc1cc(Cl)c(F)cc12 (some centres undefined)          µM                 22.1
2  CNC(=O)n1ccc2cc(Oc3ccnc(NC(=O)c4ccc(C5CCN(CCO)CC5)cc4)c3)c(OCCOC)cc21          µM                 3.33
3  CC(C)NC[C@@H](C(=O)N1CCN(c2ncnc3c2[C@H](C)C[C@H]3O)CC1)c1ccc(Cl)cc1          µM                   34

###

Measured TGI accompanies every entry in the list below.
system: SK-MEL-28 melanoma; experiment: NCI tumour cell line growth inhibition, 384-well format
observedProperty: TGI (µM)

                                   compound  observedproperty  boundoperator  reportedmeasurement
0  CC(C)NC[C@@H](C(=O)N1CCN(c2ncnc3c2[C@H](C)C[C@H]3O)CC1)c1ccc(Cl)cc1               TGI              =                 41.7
1  C[C@@H](C(=O)Nc1ccc(Cl)cc1)C1CCC(c2ccnc3ccc(F)cc23)CC1 (some centres undefined)               TGI              >                   92
2  CNC(=O)n1ccc2cc(Oc3ccnc(NC(=O)c4ccc(C5CCN(CCO)CC5)cc4)c3)c(OCCOC)cc21               TGI              =                 3.25
3  C[C@H](Nc1ncnc2nc[nH]c12)c1cc2cccc(Cl)c2c(=O)n1-c1ccccc1               TGI              =                 98.8

###

system: MCF7 breast; assay: NCI tumour cell line growth inhibition, 384-well format
In this section we review reported TGI values for a set of molecules.
observedProperty: TGI (µM)

>>> df
                                   molecule  reportedmeasurement
0  COC1(C(=O)N[C@@H](C)c2ccc(-n3cc(F)cn3)nc2)CCC(c2nc(C)cc(Nc3cc(C)[nH]n3)n2)CC1 (some centres undefined)                 14.4
1  CC(C)NC[C@@H](C(=O)N1CCN(c2ncnc3c2[C@H](C)C[C@H]3O)CC1)c1ccc(Cl)cc1                 15.5
2  C[C@@H](C(=O)Nc1ccc(Cl)cc1)C1CCC(c2ccnc3ccc(F)cc23)CC1 (some centres undefined)                 25.7
3  CC(C)(C)C[C@H]1NC(C(=O)NCC[C@H](O)CO)[C@H](c2cccc(Cl)c2)[C@@]12C(=O)Nc1cc(Cl)c(F)cc12 (some centres undefined)                 1.77
